From: PubChem BioAssay (NCI)

Tested on: MDA-MB-468 breast
Experiment notes: NCI-60 one-dose screen, 48 h (100 = growth as untreated, 0 = no growth, -100 = all killed)
Reported conditions: 10 µM unless noted
This is part of a sample that, as a whole, favours compounds with a hit. Of some 83,000 tested, about 20% had one in any assay.
# label = true (1) if growth >= 40% else false (0)

Solved entries:
C=C(C)[C@@H]1CC[C@]2(C(=O)OCCCC[P+](c3ccccc3)(c3ccccc3)c3ccccc3)CC[C@]3(C)[C@H](CC[C@@H]4[C@@]5(C)CC[C@H](OC(=O)C(Cl)Cl)C(C)(C)[C@@H]5CC[C@]43C)[C@@H]12 | false (0)
Cc1cc(C)cc(S(=O)(=O)n2ccc(-c3ccc4c(c3)CCC(C)(C)O4)n2)c1 | true (1)
CCOC(=O)c1c2c(c(C)n1Cc1ccc(OC)cc1)-c1oncc1CC2 | true (1)
COc1ccc(/C=C2\CN(Cc3cn(CCCNc4ccnc5cc(Cl)ccc45)nn3)C/C(=C\c3ccc(OC)cc3)C2=O)cc1 | true (1)
O=C(c1ccc(Cl)cc1)C(c1c[nH]c2ccccc12)c1c[nH]c2ccccc12 | false (0)

Textbook exercise: given the entry C#C[C@]1(O)CC[C@H]2[C@@H]3CC=C4c5nc(Nc6ncccn6)sc5CC[C@]4(C)[C@H]3CC[C@@]21C , state whether its growth is greater than or equal to 40%.
true (1)

Textbook exercise: given the entry OCc1cccc(F)c1 , state whether its growth is greater than or equal to 40%.
true (1)

Textbook exercise: given the entry Cc1cc(O)c(C2=NN(c3ccc(S(N)(=O)=O)cc3)C(c3ccccc3O)C2)cc1Cl (centres undefined) , state whether its growth is greater than or equal to 40%.
false (0)

Textbook exercise: given the entry Cc1cc2cn3c4ccc(O)cc4[nH]c(=O)c3c2cc1C , state whether its growth is greater than or equal to 40%.
false (0)

Textbook exercise: given the entry C[C@H](NC(=O)c1snnc1C1CC1)c1c(F)cccc1Cl , state whether its growth is greater than or equal to 40%.
true (1)

Textbook exercise: given the entry COc1ccc2cc3[n+](cc2c1OC)CCc1cc2c(cc1-3)OCO2 , state whether its growth is greater than or equal to 40%.
false (0)

Textbook exercise: given the entry CC(C)(C)c1cc(NC(=O)Nc2ccc(-c3cn4c5c(sc4n3)CCc3cn(CCCN4CCCCC4)cc3-5)cc2)no1 , state whether its growth is greater than or equal to 40%.
false (0)

Textbook exercise: given the entry O=C(Oc1ccc2c(c1)sc1nc(-c3ccccc3)[nH]c(=O)c12)C(F)(F)F , state whether its growth is greater than or equal to 40%.
false (0)

Textbook exercise: given the entry COc1c(C)cnc(CSc2nc(-c3ccc(C)cc3)cn2-c2ccc(Cl)cc2)c1C , state whether its growth is greater than or equal to 40%.
true (1)

Textbook exercise: given the entry O=C1CSC(=S)N1Cc1cccnc1 , state whether its growth is greater than or equal to 40%.
true (1)

Textbook exercise: given the entry O=C(NCCc1ccc(O)c(O)c1)C12CC3CC(CC(C3)C1)C2 , state whether its growth is greater than or equal to 40%.
true (1)

Textbook exercise: given the entry CC(C)=CCCC(C)c1ccc(C)c2c1OCN(CCCCCO)C2 (centres undefined) , state whether its growth is greater than or equal to 40%.
true (1)

Textbook exercise: given the entry COc1cc(C2CC(=O)c3c(C)nn(-c4nc5ccccc5[nH]4)c3C2)cc(OC)c1OC (centres undefined) , state whether its growth is greater than or equal to 40%.
true (1)
